B1: glmS ribozyme (parent)
chain: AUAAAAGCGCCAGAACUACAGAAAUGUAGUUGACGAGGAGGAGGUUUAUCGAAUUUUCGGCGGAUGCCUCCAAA

- Variants of: B1
- experiment summary: self-cleavage kobs at 10000 uM GlcN6P; higher = faster cleavage; RNA array
- conditions used: with glucosamine-6-phosphate
Fewer inactive variants are shown than the library holds.
In this section we review reported self-cleavage kobs at 10000 uM GlcN6P values for a set of variants.

{"mutation notation": "A33G G41U", "self-cleavage kobs at 10000 uM GlcN6P": "< 1e-05 s⁻¹"}
{"mutation notation": "A1U U2G A3G A5U A6C G7C C8A G9U C10A C11A", "self-cleavage kobs at 10000 uM GlcN6P": "< 1e-05 s⁻¹"}
{"mutation notation": "A39G U54A G62U G66A", "self-cleavage kobs at 10000 uM GlcN6P": "< 1e-05 s⁻¹"}
{"mutation notation": "C8G G43C C50U", "self-cleavage kobs at 10000 uM GlcN6P": "< 1e-05 s⁻¹"}
{"mutation notation": "C8A C34G", "self-cleavage kobs at 10000 uM GlcN6P": "< 1e-05 s⁻¹"}
{"mutation notation": "C8G C34U U55G", "self-cleavage kobs at 10000 uM GlcN6P": "< 1e-05 s⁻¹"}
{"mutation notation": "G38U G63U", "self-cleavage kobs at 10000 uM GlcN6P": "< 1e-05 s⁻¹"}
{"mutation notation": "G43U G62C C67A", "self-cleavage kobs at 10000 uM GlcN6P": "< 1e-05 s⁻¹"}
{"mutation notation": "C58G A64U", "self-cleavage kobs at 10000 uM GlcN6P": "< 1e-05 s⁻¹"}
{"mutation notation": "G63C A64U", "self-cleavage kobs at 10000 uM GlcN6P": "< 1e-05 s⁻¹"}
{"mutation notation": "C10U G40A", "self-cleavage kobs at 10000 uM GlcN6P": "< 1e-05 s⁻¹"}
{"mutation notation": "U46G G62A C71A", "self-cleavage kobs at 10000 uM GlcN6P": "< 1e-05 s⁻¹"}
{"mutation notation": "A12C G38U A52U C58A U65A C67U", "self-cleavage kobs at 10000 uM GlcN6P": "< 1e-05 s⁻¹"}
{"mutation notation": "A6U G43A", "self-cleavage kobs at 10000 uM GlcN6P": "< 1e-05 s⁻¹"}
{"mutation notation": "G9A A33U U69C", "self-cleavage kobs at 10000 uM GlcN6P": "< 1e-05 s⁻¹"}
{"mutation notation": "A36G A64C U65G", "self-cleavage kobs at 10000 uM GlcN6P": "< 1e-05 s⁻¹"}
{"mutation notation": "A15C G35U C50U", "self-cleavage kobs at 10000 uM GlcN6P": "< 1e-05 s⁻¹"}
{"mutation notation": "G9U A15U A52U", "self-cleavage kobs at 10000 uM GlcN6P": "< 1e-05 s⁻¹"}
{"mutation notation": "A6U C8U C70U", "self-cleavage kobs at 10000 uM GlcN6P": "< 1e-05 s⁻¹"}
{"mutation notation": "G32C C34U A64G C68G", "self-cleavage kobs at 10000 uM GlcN6P": "< 1e-05 s⁻¹"}
{"mutation notation": "C11A U31A", "self-cleavage kobs at 10000 uM GlcN6P": "0.000158 s⁻¹"}
{"mutation notation": "A15U G32U U54A", "self-cleavage kobs at 10000 uM GlcN6P": "0.00058 s⁻¹"}
{"mutation notation": "C34U C58G U65G C70A", "self-cleavage kobs at 10000 uM GlcN6P": "0.000376 s⁻¹"}
{"mutation notation": "G32U G63C", "self-cleavage kobs at 10000 uM GlcN6P": "< 1e-05 s⁻¹"}
{"mutation notation": "A6U A12U A64G", "self-cleavage kobs at 10000 uM GlcN6P": "0.000171 s⁻¹"}
{"mutation notation": "A12G G51C", "self-cleavage kobs at 10000 uM GlcN6P": "< 1e-05 s⁻¹"}
{"mutation notation": "G38A G44C", "self-cleavage kobs at 10000 uM GlcN6P": "< 1e-05 s⁻¹"}
{"mutation notation": "A15U G59U C71G", "self-cleavage kobs at 10000 uM GlcN6P": "< 1e-05 s⁻¹"}
{"mutation notation": "A52U C71U", "self-cleavage kobs at 10000 uM GlcN6P": "0.000362 s⁻¹"}
{"mutation notation": "G29A U55A", "self-cleavage kobs at 10000 uM GlcN6P": "0.00456 s⁻¹"}
{"mutation notation": "A15G U54A C71A", "self-cleavage kobs at 10000 uM GlcN6P": "0.00522 s⁻¹"}
{"mutation notation": "G38A A42U C70A", "self-cleavage kobs at 10000 uM GlcN6P": "< 1e-05 s⁻¹"}
{"mutation notation": "A14U A48C G51C U65G", "self-cleavage kobs at 10000 uM GlcN6P": "< 1e-05 s⁻¹"}
{"mutation notation": "A15G C58G", "self-cleavage kobs at 10000 uM GlcN6P": "0.000197 s⁻¹"}
{"mutation notation": "G40C G66A C70A", "self-cleavage kobs at 10000 uM GlcN6P": "0.000559 s⁻¹"}
{"mutation notation": "C16U U49G", "self-cleavage kobs at 10000 uM GlcN6P": "0.000387 s⁻¹"}
{"mutation notation": "C34U U45A C61U", "self-cleavage kobs at 10000 uM GlcN6P": "< 1e-05 s⁻¹"}
{"mutation notation": "A14U C16G G32A U56G", "self-cleavage kobs at 10000 uM GlcN6P": "0.000337 s⁻¹"}
{"mutation notation": "G41C C50G", "self-cleavage kobs at 10000 uM GlcN6P": "< 1e-05 s⁻¹"}
{"mutation notation": "C16G G32A", "self-cleavage kobs at 10000 uM GlcN6P": "0.00115 s⁻¹"}
{"mutation notation": "G7A G29A G38A G44U A48G G66U", "self-cleavage kobs at 10000 uM GlcN6P": "< 1e-05 s⁻¹"}
{"mutation notation": "A15G U54A G62C U65A", "self-cleavage kobs at 10000 uM GlcN6P": "< 1e-05 s⁻¹"}
{"mutation notation": "C8G U57C G62U", "self-cleavage kobs at 10000 uM GlcN6P": "< 1e-05 s⁻¹"}
{"mutation notation": "U47G U54A", "self-cleavage kobs at 10000 uM GlcN6P": "0.00946 s⁻¹"}
{"mutation notation": "C11G U54C C70U", "self-cleavage kobs at 10000 uM GlcN6P": "< 1e-05 s⁻¹"}
{"mutation notation": "G7C G41A C61U", "self-cleavage kobs at 10000 uM GlcN6P": "< 1e-05 s⁻¹"}
{"mutation notation": "G9A G37A", "self-cleavage kobs at 10000 uM GlcN6P": "< 1e-05 s⁻¹"}
{"mutation notation": "G13C G60A", "self-cleavage kobs at 10000 uM GlcN6P": "< 1e-05 s⁻¹"}
{"mutation notation": "A15U G44U", "self-cleavage kobs at 10000 uM GlcN6P": "3.08e-05 s⁻¹"}
{"mutation notation": "C11G A12G G32C U57C", "self-cleavage kobs at 10000 uM GlcN6P": "< 1e-05 s⁻¹"}
{"mutation notation": "C10U A33G A39G G41C C67U", "self-cleavage kobs at 10000 uM GlcN6P": "< 1e-05 s⁻¹"}
{"mutation notation": "C16U U57A", "self-cleavage kobs at 10000 uM GlcN6P": "0.000194 s⁻¹"}
{"mutation notation": "A33C U65A", "self-cleavage kobs at 10000 uM GlcN6P": "4.47e-05 s⁻¹"}
{"mutation notation": "U31G C34U", "self-cleavage kobs at 10000 uM GlcN6P": "< 1e-05 s⁻¹"}
{"mutation notation": "G13A G29A G63U", "self-cleavage kobs at 10000 uM GlcN6P": "< 1e-05 s⁻¹"}
{"mutation notation": "A52G U65A", "self-cleavage kobs at 10000 uM GlcN6P": "0.00028 s⁻¹"}
{"mutation notation": "G9U A14G G59C C68U", "self-cleavage kobs at 10000 uM GlcN6P": "< 1e-05 s⁻¹"}
{"mutation notation": "G7A A48U U56G", "self-cleavage kobs at 10000 uM GlcN6P": "< 1e-05 s⁻¹"}
{"mutation notation": "C16G", "self-cleavage kobs at 10000 uM GlcN6P": "0.0085 s⁻¹"}
{"mutation notation": "G9U U31G", "self-cleavage kobs at 10000 uM GlcN6P": "< 1e-05 s⁻¹"}
{"mutation notation": "G44U C50G", "self-cleavage kobs at 10000 uM GlcN6P": "< 1e-05 s⁻¹"}
{"mutation notation": "C10G C34A A52U", "self-cleavage kobs at 10000 uM GlcN6P": "< 1e-05 s⁻¹"}
{"mutation notation": "A39U C68U C71G", "self-cleavage kobs at 10000 uM GlcN6P": "4.42e-05 s⁻¹"}
{"mutation notation": "A36G A52U", "self-cleavage kobs at 10000 uM GlcN6P": "< 1e-05 s⁻¹"}
{"mutation notation": "C34U U45A", "self-cleavage kobs at 10000 uM GlcN6P": "< 1e-05 s⁻¹"}
{"mutation notation": "G9C A15G C50G G59C C70G", "self-cleavage kobs at 10000 uM GlcN6P": "0.000264 s⁻¹"}
{"mutation notation": "G32U U69C", "self-cleavage kobs at 10000 uM GlcN6P": "0.000391 s⁻¹"}
{"mutation notation": "U46G U54C C67U", "self-cleavage kobs at 10000 uM GlcN6P": "0.00207 s⁻¹"}
{"mutation notation": "U30A U65G", "self-cleavage kobs at 10000 uM GlcN6P": "0.00141 s⁻¹"}
{"mutation notation": "G35U G51A", "self-cleavage kobs at 10000 uM GlcN6P": "< 1e-05 s⁻¹"}
{"mutation notation": "C16U G66C", "self-cleavage kobs at 10000 uM GlcN6P": "0.000398 s⁻¹"}
{"mutation notation": "G29A U55G", "self-cleavage kobs at 10000 uM GlcN6P": "0.000954 s⁻¹"}
{"mutation notation": "A6U G29A", "self-cleavage kobs at 10000 uM GlcN6P": "2.9e-05 s⁻¹"}
